Readings of Stomach, accumulated activity for the listed compounds
# System: KB tumor-bearing athymic nude mice
# Experiment notes: Biodistribution of 177Lu-RedFols in KB tumor-bearing mice
# Format: in vivo, mouse
# Applied conditions: 4 h p.i.
Quick reminder: number only, in % IA/g, skip the unit.

Sample records with Stomach, accumulated activity:
Req: Provide one value: measured Stomach, accumulated activity of CN1c2c(nc(N)[nH]c2=O)NC[C@H]1CNc1ccc(C(=O)N[C@@H](CCC(=O)N[C@@H](CCCCNC(=O)CN2CCN(CC(=O)O)CCN(CC(=O)O)CCN(CC(=O)O)CC2)C(=O)N[C@@H](CCCCNC(=O)c2ccc(CNC(=O)CCCc3ccc(I)cc3)cc2)C(=O)O)C(=O)O)cc1 [[^177Lu]Lu-6R-RedFol-3, metal not drawn]
Resp: 1.5

Req: Provide one value: measured Stomach, accumulated activity of CN1c2c(nc(N)[nH]c2=O)NC[C@H]1CNc1ccc(C(=O)N[C@@H](CCC(=O)N[C@@H](CCCCNC(=O)CN2CCN(CC(=O)O)CCN(CC(=O)O)CCN(CC(=O)O)CC2)C(=O)N[C@@H](CCCCNC(=O)CCCCc2ccc(I)cc2)C(=O)O)C(=O)O)cc1 [[^177Lu]Lu-6R-RedFol-24, metal not drawn]
Resp: 1.4

Further cases:
Req: Provide one value: measured Stomach, accumulated activity of CN1c2c(nc(N)[nH]c2=O)NCC1CNc1ccc(C(=O)NC(CCC(=O)NC(CCCCNC(=O)CN2CCN(CC(=O)[O-])CCN(CC(=O)[O-])CCN(CC(=O)[O-])CC2)C(=O)NC(CCCCNC(=O)c2ccc(CNC(=O)CCCCc3ccc(I)cc3)cc2)C(=O)O)C(=O)O)cc1.[177Lu+3] (stereo not drawn) [[^177Lu]Lu-6S-RedFol-25]
Resp: 1.0

Req: Provide one value: measured Stomach, accumulated activity of CN1c2c(nc(N)[nH]c2=O)NC[C@H]1CNc1ccc(C(=O)N[C@@H](CCC(=O)N[C@@H](CCCCNC(=O)CN2CCN(CC(=O)O)CCN(CC(=O)O)CCN(CC(=O)O)CC2)C(=O)N[C@@H](CCCCNC(=O)c2ccc(CNC(=O)CCCCc3ccc(I)cc3)cc2)C(=O)O)C(=O)O)cc1 [[^177Lu]Lu-6R-RedFol-25, metal not drawn]
Resp: 1.1

Req: Provide one value: measured Stomach, accumulated activity of CN1c2c(nc(N)[nH]c2=O)NCC1CNc1ccc(C(=O)NC(CCC(=O)NC(CCCCNC(=O)CN2CCN(CC(=O)[O-])CCN(CC(=O)[O-])CCN(CC(=O)[O-])CC2)C(=O)NC(CCCCNC(=O)c2ccc(CNC(=O)CCCc3ccc(I)cc3)cc2)C(=O)O)C(=O)O)cc1.[177Lu+3] (stereo not drawn) [[^177Lu]Lu-6S-RedFol-3]
Resp: 1.3

----------
# System: KB tumor-bearing athymic nude mice
# Experiment notes: Biodistribution of 177Lu-RedFols in KB tumor-bearing mice
# Assay type: in vivo, mouse
# Applied conditions: 4 h p.i.
Readout type: Bone, accumulated activity (% IA/g)
Quick reminder: number only, in % IA/g, skip the unit.

Sample records with Bone, accumulated activity:
Req: Provide one value: measured Bone, accumulated activity of CN1c2c(nc(N)[nH]c2=O)NC[C@H]1CNc1ccc(C(=O)N[C@@H](CCC(=O)N[C@@H](CCCCNC(=O)CN2CCN(CC(=O)O)CCN(CC(=O)O)CCN(CC(=O)O)CC2)C(=O)N[C@@H](CCCCNC(=O)c2ccc(CNC(=O)CCCc3ccc(I)cc3)cc2)C(=O)O)C(=O)O)cc1 [[^177Lu]Lu-6R-RedFol-3, metal not drawn]
Resp: 1.8

Req: Provide one value: measured Bone, accumulated activity of CN1c2c(nc(N)[nH]c2=O)NCC1CNc1ccc(C(=O)NC(CCC(=O)NC(CCCCNC(=O)CN2CCN(CC(=O)[O-])CCN(CC(=O)[O-])CCN(CC(=O)[O-])CC2)C(=O)NC(CCCCNC(=O)c2ccc(CNC(=O)CCCc3ccc(I)cc3)cc2)C(=O)O)C(=O)O)cc1.[177Lu+3] (stereo not drawn) [[^177Lu]Lu-6S-RedFol-3]
Resp: 1.8

Req: Provide one value: measured Bone, accumulated activity of CN1c2c(nc(N)[nH]c2=O)NC[C@H]1CNc1ccc(C(=O)N[C@@H](CCC(=O)N[C@@H](CCCCNC(=O)CN2CCN(CC(=O)O)CCN(CC(=O)O)CCN(CC(=O)O)CC2)C(=O)N[C@@H](CCCCNC(=O)c2ccc(CNC(=O)CCCCc3ccc(I)cc3)cc2)C(=O)O)C(=O)O)cc1 [[^177Lu]Lu-6R-RedFol-25, metal not drawn]
Resp: 1.1

Req: Provide one value: measured Bone, accumulated activity of CN1c2c(nc(N)[nH]c2=O)NCC1CNc1ccc(C(=O)NC(CCC(=O)NC(CCCCNC(=O)CN2CCN(CC(=O)[O-])CCN(CC(=O)[O-])CCN(CC(=O)[O-])CC2)C(=O)NC(CCCCNC(=O)c2ccc(CNC(=O)CCCCc3ccc(I)cc3)cc2)C(=O)O)C(=O)O)cc1.[177Lu+3] (stereo not drawn) [[^177Lu]Lu-6S-RedFol-25]
Resp: 1.1

Read the next record carefully.
Req: Provide one value: measured Bone, accumulated activity of CN1c2c(nc(N)[nH]c2=O)NC[C@H]1CNc1ccc(C(=O)N[C@@H](CCC(=O)N[C@@H](CCCCNC(=O)CN2CCN(CC(=O)O)CCN(CC(=O)O)CCN(CC(=O)O)CC2)C(=O)N[C@@H](CCCCNC(=O)CCCCc2ccc(I)cc2)C(=O)O)C(=O)O)cc1 [[^177Lu]Lu-6R-RedFol-24, metal not drawn]
Resp: 0.87
